tested_on: EGFR (Homo sapiens)
Construct: made in house; host or cells: baculovirus expression system
Sequence (P00533 25-1210): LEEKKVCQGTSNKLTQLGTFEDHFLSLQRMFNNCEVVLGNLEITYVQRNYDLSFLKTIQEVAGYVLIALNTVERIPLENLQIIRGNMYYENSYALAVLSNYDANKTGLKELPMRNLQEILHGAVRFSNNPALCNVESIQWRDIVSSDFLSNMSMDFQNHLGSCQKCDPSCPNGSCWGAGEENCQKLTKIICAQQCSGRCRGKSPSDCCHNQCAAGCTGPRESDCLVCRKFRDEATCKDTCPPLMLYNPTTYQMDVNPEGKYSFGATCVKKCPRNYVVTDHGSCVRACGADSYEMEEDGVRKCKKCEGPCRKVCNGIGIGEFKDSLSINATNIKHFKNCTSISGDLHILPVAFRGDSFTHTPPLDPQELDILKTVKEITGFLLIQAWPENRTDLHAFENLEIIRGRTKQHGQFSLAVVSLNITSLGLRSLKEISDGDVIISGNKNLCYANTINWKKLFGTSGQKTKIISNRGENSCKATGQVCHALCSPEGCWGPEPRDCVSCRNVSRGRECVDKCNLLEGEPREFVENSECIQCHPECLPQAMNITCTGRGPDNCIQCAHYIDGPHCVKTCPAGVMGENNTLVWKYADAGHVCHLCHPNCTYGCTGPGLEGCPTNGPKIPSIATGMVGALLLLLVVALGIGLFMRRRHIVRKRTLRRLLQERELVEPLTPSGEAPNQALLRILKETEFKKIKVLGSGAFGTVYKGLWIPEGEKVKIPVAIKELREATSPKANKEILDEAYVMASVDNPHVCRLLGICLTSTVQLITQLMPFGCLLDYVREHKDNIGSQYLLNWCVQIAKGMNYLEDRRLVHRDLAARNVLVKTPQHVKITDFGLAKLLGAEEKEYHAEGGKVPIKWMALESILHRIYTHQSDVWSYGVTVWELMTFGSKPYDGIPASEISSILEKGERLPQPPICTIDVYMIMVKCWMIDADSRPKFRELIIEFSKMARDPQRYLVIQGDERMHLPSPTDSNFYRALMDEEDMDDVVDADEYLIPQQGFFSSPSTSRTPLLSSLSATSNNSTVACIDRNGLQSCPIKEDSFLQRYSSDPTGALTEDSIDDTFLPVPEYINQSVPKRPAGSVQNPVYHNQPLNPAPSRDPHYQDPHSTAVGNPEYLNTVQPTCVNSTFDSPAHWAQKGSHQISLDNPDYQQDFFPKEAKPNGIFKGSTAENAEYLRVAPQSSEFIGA
assay_explanation: EGFR substrate phosphorylation assay (HTRF)
Assay type: biochemical
test_settings: Method (A): Enzyme Mix incubated with compound at 20° C. for 1 hr, reaction started by adding Substrate Mix
pIC50: −log10 of the molar value. Counter-ions that a name gives are not always drawn.
measurement_name: pIC50

# query: pIC50 | item CCNc1nc(-c2cccc(NC(=O)c3c(F)cccc3F)c2)c(-c2ccnc(Nc3ccc(CCN4CCCC4)c(F)c3)n2)s1 [Example 26, trifluoroacetate] | system: EGFR (Homo sapiens) > 7.00

# query: pIC50 | item O=C(Nc1cccc(-c2nc(NCCCN3CCOCC3)sc2-c2ccnc(Nc3cccc(CN4CCCC4)c3)n2)c1)c1c(F)cccc1F | system: EGFR (Homo sapiens) > 7.00

# query: pIC50 | item Cc1nc(-c2cccc(NC(=O)c3c(F)cccc3F)c2)c(-c2ccnc(Nc3cccc(OCCN(C)C)c3)n2)s1 | system: EGFR (Homo sapiens) > 7.00

# query: pIC50 | item CN(C)CCOc1ccc(Nc2nccc(-c3sc(N)nc3-c3cccc(NC(=O)c4c(F)cccc4F)c3)n2)cc1Cl | system: EGFR (Homo sapiens) > 7.00

# query: pIC50 | item O=C1COc2cc(Nc3nccc(-c4scnc4-c4cccc(NC(=O)c5cc(F)ccc5F)c4)n3)ccc2N1 [Example 98, hydrochloride] | system: EGFR (Homo sapiens) > 7.00

# query: pIC50 | item Cc1nc(-c2cccc(NC(=O)Nc3ccc(Cl)c(C(F)(F)F)c3)c2)c(-c2ccnc(Nc3ccc4c(c3)CN(C)CC4)n2)s1 | system: EGFR (Homo sapiens) 6.00 to 7.00

====

Test system: HN5 tumor cells
assay_explanation: Method C: Cell Growth Inhibition Assay (CellTiter-Glo), HN5
Format: cell-based
test_settings: Homo sapiens, 72 h, 3 days, 4-parameter fit
measurement_name: IC50

Entry CN(C)c1nc(-c2cccc(NC(=O)c3c(F)cccc3F)c2)c(-c2ccnc(Nc3cccc(CN4CCCC4)c3)n2)s1 : reported IC50 = ? 100 to 1000 nM

Entry Nc1nc(-c2cccc(NC(=O)c3c(F)cccc3F)c2)c(-c2ccnc(Nc3cccc(CN4CCCC4)c3)n2)s1 : reported IC50 = ? < 100 nM

Entry CN(C)CCOc1cccc(Nc2nccc(-c3scnc3-c3cccc(NC(=O)c4cc(F)ccc4F)c3)n2)c1 : reported IC50 = ? < 100 nM

Entry CN(C)Cc1cccc(Nc2nccc(-c3scnc3-c3cccc(NC(=O)c4c(F)cccc4F)c3)n2)c1 : reported IC50 = ? 100 to 1000 nM

Entry CN1CCc2ccc(Nc3nccc(-c4sc(N5CCCC5)nc4-c4cccc(NC(=O)c5c(F)cccc5F)c4)n3)cc2C1 : reported IC50 = ? 100 to 1000 nM

Entry COc1cc(Nc2nccc(-c3sc(N)nc3-c3cccc(NC(=O)c4c(F)cccc4F)c3)n2)cc(OC)c1OC : reported IC50 = ? < 100 nM

Entry CN1CCc2ccc(Nc3nccc(-c4sc(N(C)C)nc4-c4cccc(NC(=O)c5c(F)cccc5F)c4)n3)cc2C1 : reported IC50 = ? < 100 nM

====

Tested on: SK-MEL-28 tumor cells
assay_explanation: Method C: Cell Growth Inhibition Assay (CellTiter-Glo), SK-MEL-28
Type: cell-based
test_settings: Homo sapiens, SK-MEL-28, 72 h, 3 days, 4-parameter fit
pIC50: −log10 of the molar value. Structures can show the parent of a compound that is named as a salt.
Exercise: for every item that follows, state its recorded pIC50.

Entry Cc1nc(-c2cccc(NC(=O)c3c(F)cccc3F)c2)c(-c2ccnc(Nc3ccc(OC4CCN(C(C)C)CC4)c(F)c3)n2)s1 : reported pIC50 = ? 6.00 to 7.00

Entry CN(C)CCOc1ccc(Nc2nccc(-c3sc(N)nc3-c3cc(NC(=O)c4c(F)cccc4F)ccc3F)n2)cc1Cl : reported pIC50 = ? 6.00 to 7.00

Entry CN1CCc2ccc(Nc3nccc(-c4sc(NCCCN5CCOCC5)nc4-c4cccc(NC(=O)c5c(F)cccc5F)c4)n3)cc2C1 : reported pIC50 = ? < 6.00

Entry CCNc1nc(-c2cccc(NC(=O)C3CC3)c2)c(-c2ccnc(Nc3ccc(OCCN4CCCC4)c(Cl)c3)n2)s1 : reported pIC50 = ? < 6.00

Entry CN(C)c1nc(-c2cccc(NC(=O)c3c(F)cccc3F)c2)c(-c2ccnc(Nc3ccc(N4CCOCC4)c(Cl)c3)n2)s1 [Example 41, trifluoroacetate] : reported pIC50 = ? < 6.00

Entry CN(C)CCOc1cccc(Nc2nccc(-c3sc(N4CCCCC4)nc3-c3cccc(NC(=O)c4c(F)cccc4F)c3)n2)c1 : reported pIC50 = ? < 6.00

Entry Cc1nc(-c2cccc(NC(=O)c3c(F)cccc3F)c2)c(-c2ccnc(Nc3ccc(OCCN(C)C)c(Cl)c3)n2)s1 : reported pIC50 = ? < 6.00

Entry CCN(CC)CCOc1cccc(Nc2nccc(-c3sc(N)nc3-c3cccc(NC(=O)c4c(F)cccc4F)c3)n2)c1 : reported pIC50 = ? < 6.00

Entry Cc1nc(-c2cccc(NC(=O)c3cc(F)ccc3F)c2)c(-c2ccnc(Nc3ccc(OCCN(C)C)c(F)c3)n2)s1 : reported pIC50 = ? < 6.00

Entry CN(C)CCOc1ccc(Nc2nccc(-c3sc(N)nc3-c3cccc(NC(=O)c4c(F)cccc4F)c3)n2)cc1Cl : reported pIC50 = ? 6.00 to 7.00

Entry CCc1nc(-c2cccc(NC(=O)c3c(F)cccc3F)c2)c(-c2ccnc(Nc3cccc(CN4CCCC4)c3)n2)s1 : reported pIC50 = ? < 6.00

Entry CCc1nc(-c2cccc(NC(=O)c3c(F)cccc3F)c2)c(-c2ccnc(Nc3ccc(N4CCOCC4)nc3)n2)s1 [Example 118, trifluoroacetate] : reported pIC50 = ? < 6.00

Entry CN(C)CCOc1cccc(Nc2nccc(-c3scnc3-c3cccc(NC(=O)Cc4cccs4)c3)n2)c1 : reported pIC50 = ? < 6.00

Entry CN(C)CCOc1cccc(Nc2nccc(-c3sc(NCCCN4CCOCC4)nc3-c3cccc(NC(=O)c4c(F)cccc4F)c3)n2)c1 : reported pIC50 = ? < 6.00

Entry CC(C)(C)c1nc(-c2cccc(NC(=O)c3c(F)cccc3F)c2)c(-c2ccnc(Nc3cccc(CN4CCCC4)c3)n2)s1 : reported pIC50 = ? < 6.00

Entry O=C(Nc1cccc(-c2nc(N3CCC3)sc2-c2ccnc(Nc3ccc(OCCN4CCCC4)c(Cl)c3)n2)c1)c1c(F)cccc1F : reported pIC50 = ? < 6.00

Entry CNc1nc(-c2cccc(NC(=O)c3c(F)cccc3F)c2)c(-c2ccnc(Nc3cccc(CN4CCCC4)c3)n2)s1 : reported pIC50 = ? < 6.00

Entry CN(C)CCOc1ccc(Nc2nccc(-c3sc(N4CCCCC4)nc3-c3cccc(NC(=O)c4c(F)cccc4F)c3)n2)cc1Cl : reported pIC50 = ? < 6.00

Entry Cc1cccc(C(=O)Nc2cccc(-c3nc(C)sc3-c3ccnc(Nc4ccc(OCCN(C)C)c(Cl)c4)n3)c2)c1 : reported pIC50 = ? < 6.00

Entry O=C(Nc1cccc(-c2nc(N3CCCCC3)sc2-c2ccnc(Nc3cccc(CN4CCCC4)c3)n2)c1)c1c(F)cccc1F : reported pIC50 = ? < 6.00

Entry CN1CCc2ccc(Nc3nccc(-c4sc(C5CCNCC5)nc4-c4cccc(NC(=O)c5c(F)cccc5F)c4)n3)cc2C1 : reported pIC50 = ? < 6.00

Entry CCc1nc(-c2cccc(NC(=O)c3c(F)cccc3F)c2)c(-c2ccnc(Nc3ccc(OCCN(C)C)c(F)c3)n2)s1 : reported pIC50 = ? < 6.00

Entry CN(C)CCOc1ccc(Nc2nccc(-c3sc(N)nc3-c3cccc(C(=O)Nc4c(F)cccc4F)c3)n2)cc1Cl : reported pIC50 = ? < 6.00

Entry CNc1nc(-c2cccc(NC(=O)c3c(F)cccc3F)c2)c(-c2ccnc(Nc3ccc(OCCN(C)C)c(Cl)c3)n2)s1 : reported pIC50 = ? 6.00 to 7.00

Entry CN(C)CCOc1cccc(Nc2nccc(-c3scnc3-c3cccc(NC(=O)c4c(F)cccc4F)c3)n2)c1 : reported pIC50 = ? < 6.00

Entry CC(C)c1nc(-c2cccc(NC(=O)c3c(F)cccc3F)c2)c(-c2ccnc(Nc3cccc(OCCN(C)C)c3)n2)s1 : reported pIC50 = ? < 6.00

Entry CN(C)CCOc1ccc(Nc2nccc(-c3sc(N)nc3-c3ccc(F)c(NC(=O)c4c(F)cccc4F)c3)n2)cc1Cl : reported pIC50 = ? 6.00 to 7.00
